Taken from patent US20240101557A1.

- system_tested: KRAS G12V mutant (Homo sapiens, UniProt P01116, G12V)
- Sequence (P01116 1-188 isoform P01116-2 G12V): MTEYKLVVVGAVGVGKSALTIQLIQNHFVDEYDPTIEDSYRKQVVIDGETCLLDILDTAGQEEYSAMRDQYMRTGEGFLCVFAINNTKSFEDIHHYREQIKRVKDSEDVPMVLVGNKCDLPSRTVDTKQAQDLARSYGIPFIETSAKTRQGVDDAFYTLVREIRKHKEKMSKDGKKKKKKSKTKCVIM
- test_name: GDP-GTP exchange assay (bodipy-GDP for GppNHp, with SOS1), KRAS G12V
- Type: biochemical
- assay_conditions: bodipy-loaded KRAS G12V 2.5 nM, 3 h incubation after GppNHp-SOS1; read-out: G12V_ exchange
pIC50: −log10 of the molar value.
measurement_kind: pIC50

C[C@H](Oc1nc2c(F)c(-c3cccc(Cl)c3Cl)c(CCC#N)cc2c2c1cc([C@H]1C[C@H](F)CN1C(=O)C1CC1)n2[C@H]1[C@H]2CN[C@@H]1C2)[C@@H]1CCCN1C [Example 10]	≥ 7.00
CC(=O)N1[C@@H](c2cc3c(O[C@@H](C)[C@@H]4CCCN4C)nc4c(F)c(-c5cccc6c5C(C#N)CCC6)c(C)cc4c3n2[C@H]2[C@H]3CN[C@@H]2C3)C[C@@H]2C[C@@H]21 (stereo partly drawn) [Example 7]	≥ 7.00
C[C@H](Oc1nc2c(F)c(-c3cccc(Cl)c3Cl)c(CCC#N)cc2c2c1cc([C@H]1C[C@H](Oc3ncccc3F)CN1C(=O)C1CC1)n2[C@H]1[C@H]2CN[C@@H]1C2)[C@@H]1CCCN1C [Example 9]	≥ 7.00
